Hello, the source for this data is PubChem BioAssay (Tox21), in case you need it.

# experiment: qHTS assay to identify small molecule antagonists of the sonic hedgehog signaling (Shh) pathway - cell viability counter screen (AID 1259367); also: % is scaled to controls: 0 for no effect and ±100 for the full control effect; nearly all actives have a fitted effect of over 55% in size
# settings: NIH/3T3 Gli1-Luc viability, CellTiter-Fluor, 24 h; series mostly up to 92.4 µM
Results filed as inconclusive are left out. Calls of active or inactive are those of the source. Calls follow the shape of the dose curve; as a rule, active = well fitted cell-killing curve with a large enough effect in the repeat runs; inconclusive = weak or mixed curves, or effect the other way; inactive = no such curve, though single readings can be large or run the other way.
valueKind: viability change, negative = cytotoxic

CCO[Si](CC(C)C)(OCC)OCC	inactive
CCCC(=O)C(CC)Sc1ccoc1C (stereo not drawn)	inactive
CC12CCCC=C1C(=O)OC2=O (stereo not drawn)	inactive
C=CCON/C(CCC)=C1\C(=O)CC(C)(C)C(C(=O)OC)=C1O	inactive
C=CCn1cc[n+](C)c1	inactive
COc1ccccc1N1CCN(CC(O)COc2cc(OC)c(OC)c(OC)c2)CC1 (stereo not drawn)	inactive
CCOC(=O)CC	inactive
C[Si](C)(C)O[Si](O)(O)O	inactive
Cc1ccc(OC(=O)CC(C)C)cc1	inactive
CC(C)=CCC/C(C)=C\C#N	inactive
C/C=C(\C)C(=O)OC/C=C(\C)CCC=C(C)C	inactive
CCCCCCCCCCCBr	inactive
O=P(O)(O)C(O)(Cc1cccnc1)P(=O)(O)O	inactive
NC[C@H]1O[C@H](O[C@H]2[C@H](O)[C@@H](O[C@H]3O[C@H](CO)[C@@H](O)[C@H](N)[C@H]3O)[C@H](N)C[C@@H]2N)[C@H](N)[C@@H](O)[C@@H]1O	3.49% [at 19 µM] (inactive)
N=C(N)S(=O)O	inactive
CC/C=C\CCOC(=O)c1ccccc1	inactive
O=C1CC2(CCCC2)CC(=O)N1CCNCC1COc2ccccc2O1 (stereo not drawn)	inactive
O=S(=O)(O)CC(O)CCl (stereo not drawn)	inactive
O=C1Nc2ccccc2C1=O	inactive
CC(C)(O)c1ccc(C(C)(C)O)cc1	inactive
OCCC(F)(F)C(F)(F)C(F)(F)C(F)(F)C(F)(F)C(F)(F)F	inactive
O=S(=O)(O)c1ccc(Cl)cc1	inactive
CCCCS	inactive
CCCCNCC	inactive
O=C(c1ccccc1)c1cccc(O)c1	inactive
COc1ccc2cc(CCC(C)=O)ccc2c1	inactive
CC(=O)OCC(=O)[C@@]1(O)CC[C@H]2[C@@H]3CCC4=CC(=O)C=C[C@]4(C)[C@H]3[C@@H](O)C[C@@]21C	inactive
CC(CN1CC(=O)NC(=O)C1)N1CC(=O)NC(=O)C1 (stereo not drawn)	inactive
C=CCN1CCc2nc(N)sc2CC1	inactive
CCCC[O][Al]([O]CCCC)[O]CCCC	inactive
Cc1cc(C)c(C)c(C)c1	inactive
CSC(=O)c1cccc2nnsc12	inactive
C=CC(=O)OCCOCCOCC	inactive

###

# experimentalSystem: Cytochrome P450 2C9 (Homo sapiens)
# experiment: Cytochrome P450 Family 2 Subfamily C Member 9 (CYP2C9) small molecule antagonists: luciferase reporter qHTS assay (AID 1671198); also: nearly all actives have a fitted effect of over 50% in size
# settings: P450-Glo CYP2C9 enzyme assay, luciferin luminescence; series mostly up to 115 µM
Inconclusive results are not listed. Calls of active or inactive are those of the source. Calls follow the shape of the dose curve; as a rule, active = well fitted inhibition curve with a large enough effect in the repeat runs; inconclusive = weak or mixed curves; inactive = no such curve, though single readings can be large or run the other way. Non-standard residues stand in square brackets, D forms with d. Residues, ends and D or L forms follow the SMILES beside them. *: point of attachment. Sta = CC(C)C[C@H](N)[C@@H](O)CC(=O)O; Isovaleryl = CC(C)CC(=O)*
Labels: active, inactive

CC[C@@]1(c2ccccc2)NC(=O)N(C)C1=O	inactive
CCOC(=O)CC(C(C)=O)C(C)=O	inactive
CCNC(=O)C(C)OC(=O)Nc1ccccc1 (configuration not stated)	active
CC(O)C(CO)C(C)O (configuration not stated)	inactive
CCO[Si](CC(C)C)(OCC)OCC	active
Cc1cc(O)c(Cl)cc1C	inactive
Cc1ccc(O)c([N+](=O)[O-])c1	inactive
N=C(N)S(=O)O	inactive
O=P(O)(O)C(O)(Cc1cccnc1)P(=O)(O)O	inactive
CCCCCCCCCCCBr	inactive
CC(C)CC(=O)N[C@H](C(=O)N[C@H](C(=O)N[C@@H](CC(C)C)[C@@H](O)CC(=O)N[C@@H](C)C(=O)N[C@@H](CC(C)C)[C@@H](O)CC(=O)O)C(C)C)C(C)C (Isovaleryl-VV[Sta]A[Sta]-OH)	inactive
C=CCON/C(CCC)=C1\C(=O)CC(C)(C)C(C(=O)OC)=C1O	active

###

Overview of reported activation across a group of compounds:
# experimentalSystem: Nuclear receptor subfamily 1 group I member 2 (Homo sapiens) (UniProt O75469)
# Sequence (O75469 whole entry, looked up): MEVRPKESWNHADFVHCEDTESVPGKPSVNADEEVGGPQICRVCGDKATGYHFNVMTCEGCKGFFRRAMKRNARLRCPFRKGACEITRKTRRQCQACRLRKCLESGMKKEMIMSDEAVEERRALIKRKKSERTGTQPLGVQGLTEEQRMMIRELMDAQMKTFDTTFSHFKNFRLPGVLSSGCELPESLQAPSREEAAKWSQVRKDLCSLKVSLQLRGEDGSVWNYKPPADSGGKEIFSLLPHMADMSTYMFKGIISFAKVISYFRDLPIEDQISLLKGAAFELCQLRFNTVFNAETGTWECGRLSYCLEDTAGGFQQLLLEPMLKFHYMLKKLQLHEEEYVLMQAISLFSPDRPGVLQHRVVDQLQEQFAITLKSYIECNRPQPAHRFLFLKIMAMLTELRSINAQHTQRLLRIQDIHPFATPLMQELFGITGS
# experiment: Human pregnane X receptor (PXR) small molecule agonists, qHTS assay (AID 1346982); also: % is scaled to controls: 0 for no effect and ±100 for the full control effect; nearly all actives have a fitted effect of over 35% in size
# settings: PXR-Luc HepG2, CYP3A4 luciferase reporter, 24 h; series mostly up to 92.4 µM
Inconclusive results are not listed. Active and inactive are the calls of the source. Calls follow the shape of the dose curve; as a rule, active = well fitted activation curve with a large enough effect in the repeat runs; inconclusive = weak or mixed curves; inactive = no such curve, though single readings can be large or run the other way.
valueKind: activation

CN(C)CCCN(C)C	5.88% [at 8.39 µM] (inactive)
C[C@@H]1CC[C@@]2(OC1)O[C@H]1C[C@H]3[C@@H]4CC[C@H]5C[C@@H](O)CC[C@]5(C)[C@H]4CC(=O)[C@]3(C)[C@H]1[C@@H]2C	-7.1% [at 8.39 µM] (inactive)
C[C@@H]1NC(=O)[C@@H](N)CNC(=O)[C@H](C2CCNC(N)=N2)NC(=O)/C(=C/NC(N)=O)NC(=O)[C@H](CNC(=O)C[C@@H](N)CCCN)NC1=O (stereo partly specified)	-4.64% [at 0.349 µM] (inactive)
NC[C@H]1O[C@H](O[C@H]2[C@H](O)[C@@H](O[C@H]3O[C@H](CO)[C@@H](O)[C@H](N)[C@H]3O)[C@H](N)C[C@@H]2N)[C@H](N)[C@@H](O)[C@@H]1O	-6.93% [at 19 µM] (inactive)
c1cc2ccc3ccc4ccc5cccc6c(c1)c2c3c4c56	3.44% [at 3.27 µM] (inactive)
N=C(N)N1CCc2ccccc2C1	-6.7% [at 8.39 µM] (inactive)

###

# experiment: A CellTox Green Cytotoxicity Assay to monitor cytotoxicity in HEK293 cells - 0 hour (AID 1224869); also: % is scaled to controls: 0 for no effect and ±100 for the full control effect; nearly all actives have a fitted effect of over 50% in size
# settings: CellTox Green fluorescence; series mostly up to 76.8 µM
Active and inactive are the calls of the source. Calls follow the shape of the dose curve; as a rule, active = well fitted activation curve with a large enough effect in the repeat runs; inconclusive = weak or mixed curves; inactive = flat fitted curve, though single readings scatter.
valueKind: cytotoxicity

CCCCNCC	inactive
CCCCC(CC)COC(=O)CC#N (centres undefined)	inactive
O=C[C@@H](O)[C@H](O)[C@H](O)CO	inactive
CC/C=C/CCCCCCCCCCOC(C)=O	inactive
COc1ccc(Cl)cc1C	inactive
O=Cc1ccccc1S(=O)(=O)O	inactive
O=CN1CCCCC1	inactive
CC(C)(C)OC(=O)c1ccccc1C(=O)O	inactive
CCO/C=C1\N=C(c2ccccc2)OC1=O	inactive
C[C@@H]1NC(=O)[C@@H](N)CNC(=O)[C@H](C2CCNC(N)=N2)NC(=O)/C(=C/NC(N)=O)NC(=O)[C@H](CNC(=O)C[C@@H](N)CCCN)NC1=O (some centres undefined)	0.414% [at 0.29 µM] (inactive)
CN(C)CCCN(C)C	0.262% [at 6.97 µM] (inactive)
C=CCN1CCc2nc(N)sc2CC1	inactive
CC(C)(O)c1ccc(C(C)(C)O)cc1	inactive
CC(C)(O)CCCC1=CCC(C=O)CC1 (centres undefined)	inactive

###

# experiment: qHTS RealTime-Glo MT Cell Viability Assay in HepG2 cells - 8 hour (AID 1224873); also: % is scaled to controls: 0 for no effect and ±100 for the full control effect; nearly all actives have a fitted effect of over 55% in size
# settings: RealTime-Glo luminescence; series mostly up to 76.8 µM
Records with an inconclusive call do not appear. The source made the active and inactive calls. The call rests on the fitted dose curve; in most records, active means well fitted cell-killing curve with a large enough effect in the repeat runs; inconclusive means weak or mixed curves; inactive means flat fitted curve, though single readings scatter.
valueKind: viability change, negative = cytotoxic

Cc1nc2ccc(Cl)cc2[nH]1	inactive
CN(C)c1cc(NC(=O)CNC(C)(C)C)c(O)c2c1C[C@H]1C[C@H]3[C@H](N(C)C)C(=O)C(C(N)=O)=C(O)[C@@]3(O)C(=O)C1=C2O	inactive
Cc1cc(O)c(Cl)cc1C	inactive
C=CCCCCCCCCOC(C)=O	inactive
C[C@@H]1NC(=O)[C@@H](N)CNC(=O)[C@H](C2CCNC(N)=N2)NC(=O)/C(=C/NC(N)=O)NC(=O)[C@H](CNC(=O)C[C@@H](N)CCCN)NC1=O (stereo not given in full)	3.98% [at 0.29 µM] (inactive)

###

# experimentalSystem: Cytochrome P450 2C9 (Homo sapiens) (UniProt P11712)
# Sequence (P11712 whole entry, looked up): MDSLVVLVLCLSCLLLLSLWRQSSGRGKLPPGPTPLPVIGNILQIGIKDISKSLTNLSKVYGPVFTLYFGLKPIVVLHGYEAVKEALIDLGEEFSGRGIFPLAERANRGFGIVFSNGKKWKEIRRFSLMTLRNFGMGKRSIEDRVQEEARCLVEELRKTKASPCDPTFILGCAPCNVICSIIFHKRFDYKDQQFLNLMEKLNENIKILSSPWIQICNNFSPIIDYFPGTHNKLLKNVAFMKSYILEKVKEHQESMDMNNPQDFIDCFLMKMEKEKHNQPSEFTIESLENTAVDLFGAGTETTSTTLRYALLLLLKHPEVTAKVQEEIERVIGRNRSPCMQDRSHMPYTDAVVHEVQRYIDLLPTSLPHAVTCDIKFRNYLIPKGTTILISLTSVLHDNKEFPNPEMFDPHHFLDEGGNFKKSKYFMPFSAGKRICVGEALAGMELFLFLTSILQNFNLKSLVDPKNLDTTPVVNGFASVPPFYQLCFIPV
# experiment: Cytochrome P450 Family 2 Subfamily C Member 9 (CYP2C9) small molecule antagonists: luciferase reporter qHTS assay (AID 1671198); also: nearly all actives have a fitted effect of over 50% in size; as to activity change, negative = inhibition: % is scaled to controls: 0 for no effect and ±100 for the full control effect
# settings: P450-Glo CYP2C9 enzyme assay, luciferin luminescence; series mostly up to 115 µM
Records with an inconclusive call do not appear. Active and inactive are the calls of the source. Calls come from the whole dose curve; as a rule, active = well fitted inhibition curve with a large enough effect in the repeat runs; inconclusive = weak or mixed curves; inactive = no such curve, though single readings can be large or run the other way.
Measured activity change, negative = inhibition values are reported for all entries that follow.
valueKind: activity change, negative = inhibition

CCCCCCCCCCCCCCCCN(C)C	-0.0403% [at 10.5 µM] (inactive)
C[C@@H]1NC(=O)[C@@H](N)CNC(=O)[C@H](C2CCNC(N)=N2)NC(=O)/C(=C/NC(N)=O)NC(=O)[C@H](CNC(=O)C[C@@H](N)CCCN)NC1=O (stereo not given in full)	3.32% [at 0.435 µM] (inactive)
c1cc2ccc3ccc4ccc5cccc6c(c1)c2c3c4c56	-14.6% [at 4.07 µM] (inactive)
CCCCCCCCCCCCCCCC(=O)OC	2.75% [at 23.6 µM] (inactive)
NC[C@H]1O[C@H](O[C@H]2[C@H](O)[C@@H](O[C@H]3O[C@H](CO)[C@@H](O)[C@H](N)[C@H]3O)[C@H](N)C[C@@H]2N)[C@H](N)[C@@H](O)[C@@H]1O	16.5% [at 23.6 µM] (inactive)
